systemTested: CYP3A4 (Homo sapiens)
Sequence (P08684 2-503 limits assumed): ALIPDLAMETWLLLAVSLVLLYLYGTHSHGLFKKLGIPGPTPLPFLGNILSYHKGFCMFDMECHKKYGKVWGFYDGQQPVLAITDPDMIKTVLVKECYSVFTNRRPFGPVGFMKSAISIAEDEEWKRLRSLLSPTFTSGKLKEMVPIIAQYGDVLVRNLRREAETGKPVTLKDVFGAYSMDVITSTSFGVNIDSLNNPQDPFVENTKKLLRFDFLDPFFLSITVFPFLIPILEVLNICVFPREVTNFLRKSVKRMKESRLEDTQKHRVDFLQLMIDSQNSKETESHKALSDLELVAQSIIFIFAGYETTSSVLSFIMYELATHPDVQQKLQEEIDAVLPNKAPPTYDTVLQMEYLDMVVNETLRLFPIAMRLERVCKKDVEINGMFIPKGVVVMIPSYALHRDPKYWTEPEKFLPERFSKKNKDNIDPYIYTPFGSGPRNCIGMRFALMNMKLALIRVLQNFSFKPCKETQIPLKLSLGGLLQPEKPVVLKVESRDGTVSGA
method: Michaelis-Menten kinetics of midazolam 1-hydroxylation (CYP3A4 marker reaction) in HLM
Assay type: in vitro ADME
Set-up: tissue Corning Inc; host or cells: pooled human liver microsomes (150 donors)
measurementParameters: human, human liver microsomes

molecule	Km
Cc1ncc2n1-c1ccc(Cl)cc1C(c1ccccc1F)=NC2 [Midazolam, midazolam]	4.45 µM

* * *

Test system: CYP2C19 (loratadine), CYP2C9 (sulfaphenazole), CYP3A4 (ketoconazole)
method: in vitro
measurementParameters: human, pH 7.5

molecule	inhibition at 3 µM
CC(=O)N1CCN(c2ccc(OCC3COC(Cn4ccnc4)(c4ccc(Cl)cc4Cl)O3)cc2)CC1 (centres unmarked)	47.6%
Nc1ccc(S(=O)(=O)Nc2ccnn2-c2ccccc2)cc1	36.2%
